These data points were gathered from the supplement of paper PMC4466140.

TESTED_ON: SpHof1-3
TEST_DESCRIPTION: SPOT peptide array binding signal intensity (averaged, normalized) (arbitrary units (background-subtracted, floor 0; scale differs between SH3 domains)); higher = stronger binding of the SH3 domain to the peptide
Lab note: class by SPOT peptide array binding signal intensity, see class 1 = under 100, class 2 = from 100 up to 600, class 3 = 600 and over

>>> discrete_label("VAPPPLPNRQLPNLD")
"class 1"
>>> discrete_label("VQPTAAPATPPRHIS")
"class 1"
>>> discrete_label("IAPIPMPKPNPTHIS")
"class 1"
>>> discrete_label("VYTRTAFQIPGDDKI")
"class 1"
>>> discrete_label("RPVPRRPSQPLNTLS")
"class 2"
>>> discrete_label("VNIPSPSSSPPPIPK")
"class 1"
>>> discrete_label("KTKQQKPAIPQKKSF")
"class 2"
>>> discrete_label("TTAPALPSLPPPPLL")
"class 1"
>>> discrete_label("YLTRPLPSTPNEDSR")
"class 3"
>>> discrete_label("ISNFVPPNLPMRRFK")
"class 1"
>>> discrete_label("MKRSRPSRSIPYTTP")
"class 2"
>>> discrete_label("SRQAIPPPVPNRPGG")
"class 2"
>>> discrete_label("AAHKTKPSIPPKKVE")
"class 1"
>>> discrete_label("AIPPPVPNRPGGTTN")
"class 1"
>>> discrete_label("RRASLFPRDPKRLRP")
"class 2"
>>> discrete_label("RSLRKRPTSPSISGS")
"class 3"
>>> discrete_label("RMVRRRPLRVQFSAR")
"class 3"
>>> discrete_label("RPKRRAPPPVPKKPS")
"class 3"
>>> discrete_label("RRRRRPHRIERPLSN")
"class 2"
>>> discrete_label("GTIARPLFLVVLFFI")
"class 3"
>>> discrete_label("FPPKRKPLLRPQRSD")
"class 2"
>>> discrete_label("TEVPIPRRPPPPQAA")
"class 1"
>>> discrete_label("GLRRARYKFPGQQKI")
"class 2"
>>> discrete_label("PPIPIVPSSPAPPLP")
"class 1"
>>> discrete_label("KKIRLIFTYPSTVGR")
"class 3"
>>> discrete_label("MTKTPETSPPKRPMG")
"class 1"
>>> discrete_label("EREKALPPIPFTTTL")
"class 3"
>>> discrete_label("NMLKKKPLKKPLKRF")
"class 3"
